test system: morningglory; assay: Test E preemergence; assay type: in vivo, Ipomoea coccinea; conditions: 125 g ai/ha, scale 0 to 100, 0 no effect, 100 complete control
property_label: Plant response rating, Morningglory
Kindly provide the number alone.

1. FC(F)(F)COc1cnn(-c2ccccc2Oc2ncc(Cl)cn2)c1 ... 40

Q: Look up Plant response rating, Morningglory for this compound: N#Cc1cccc(Oc2ncc(F)cn2)c1-n1cc(Cl)cn1
Result: 30

Q: Look up Plant response rating, Morningglory for this compound: FC(F)(F)c1cnn(-c2ccccc2Oc2ncc(Br)cn2)c1
Result: 0

Q: Look up Plant response rating, Morningglory for this compound: N#Cc1cccc(Oc2ncc(Br)cn2)c1-n1cc(I)cn1
Result: 15

Q: Look up Plant response rating, Morningglory for this compound: N#Cc1cnn(-c2c(CF)cccc2Oc2ncc(F)cn2)c1
Result: 0

Q: Look up Plant response rating, Morningglory for this compound: N#Cc1cnn(-c2c(C#N)cccc2Oc2ncc(F)cn2)c1
Result: 75
